Structures can show the parent of a compound that is named as a salt.
readout.label: melting point

Some molecules with recorded melting point:
[[record]]
molecule = "C[C@@H]1CCCN1CCc1ccc2cc(-c3ccc(Cl)nc3)ccc2n1 (as salt: tartrate) [Example 110]"
value_observed = "167 to 168 °C"

[[record]]
molecule = "C[C@@H]1CCCN1CCc1ccc2cc(-c3ccc(C#N)cc3)ccc2n1 (as salt: tartrate) [Example 42]"
value_observed = "164 °C"

[[record]]
molecule = "COc1ccc(-c2ccc3nc(CCN4CCC[C@H]4C)ccc3c2)cc1 (as salt: hydrochloride) [Example 46]"
value_observed = "165 °C (dec.)"


stdin: Please look up its melting point: CC(=O)c1cccc(-c2ccc3nc(CCN4CCC[C@H]4C)ccc3c2)c1 (as salt: hydrochloride) [Example 45]
stdout: 174 to 175 °C

stdin: Please look up its melting point: C[C@@H]1CCCN1CCc1ccc2cc(C#N)ccc2c1 (as salt: hydrochloride) [Example 5]
stdout: 187.4 to 188.6 °C

stdin: Please look up its melting point: C[C@@H]1CCCN1CCc1ccc2cc(-c3ccc(F)cc3)ccc2n1 (as salt: hydrochloride) [Example 43]
stdout: 145 °C

stdin: Please look up its melting point: C[C@@H]1CCCN1CCc1ccc2cc(-c3cccnc3)ccc2n1 (as salt: hydrochloride) [Example 51]
stdout: 205 to 207 °C
